- Tested system: T1, Recombinant human CD4 (R&D Systems, Cat. 10327-CD) (human, UniProt P01730 26-390, limits assumed)
- T1 construct: Bought soluble recombinant protein used as analyte at 100 nM; also called huCD4
- Test protocol: BLI (Octet Red384), non-clonal supernatant on AMC sensor, 100 nM human CD4, 1:1 local fit;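 note: hybridoma antibodies captured from supernatant, single CD4 concentration as analyte, association and dissociation phases fitted together, giving single-point kinetic estimates per supernatant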
Items are presented alongside their recorded log10 koff.
Measured attribute: log10 koff (log10 of the value in s⁻¹)

[[record]]
binder = "75110_06E14A (antibody, V domains shown, Non-clonal AlivaMab Mouse Kappa hybridoma supernatant, captured by anti-mouse IgG Fc (human V regions, mouse Fc)) VH: QVQLQESGPGLVKPSETLSLTCTVSGGSISNYFWSWIRQPAGKGLEWIGRIYSSGNTNYNPSLKSRVTMSVDTSKNQFSLKLSSVTAADTAVYYCARDREDYYYYGMDVWGQGTTVTVSS VL: DIQMTQSPSSLSASVGDRVTITCQASQDISNYLNWYQQKPGKAPKLLIYGASILETGVPSRFTGSGSGTDFTFTISSLQPEDIATYYCQQYDSLPITFGQGTRLEIK"
numeric_result = -2.70

[[record]]
binder = "75110_08D24A (antibody, V domains shown, Non-clonal AlivaMab Mouse Kappa hybridoma supernatant, captured by anti-mouse IgG Fc (human V regions, mouse Fc)) VH: QVQLQESGPGLVKPSETLSLTCTVSGGSISGFYWSWIRQPAGKGLEWIGRIYTSENTNYNPSLKSRVTMSVDTSKNQFSLKLSSVTAADTAVYYCARDREGYYYYGMDVWGQGTTVTVSS VL: DIQMTQSPSSLSASVGDRVTITCQASQDISNYLNWYQQKPGKAPKLLIYAASNLETGVPSRFSGSGSGTDFTFTISSLQPEDIATYYCQQYDSLPITFGQGTRLEIK"
numeric_result = -2.22

[[record]]
binder = "75110_07J02A (antibody, V domains shown, Non-clonal AlivaMab Mouse Kappa hybridoma supernatant, captured by anti-mouse IgG Fc (human V regions, mouse Fc)) VH: EVQLVESGGGLVQPGGSLRLSCAASGFTFSSYWMSWVRQAPGKGLEWVANIKEDGSEKYYVDSVKGRFTISRDNAKNSLYLQMNSLRAEDTAVYYCARDGSYSGYGMDVWGQGTTVTVSS VL: AIQMTQSPSSLSASVGDRVTITCRASQGIRNDLGWYQQKPGKAPKLLIYAASSLQSGVPSRFSGRGSGTDFALTISSLQPEDFATYYCLLDYNYPYTFGQGTRLEIK"
numeric_result = -4.42

[[record]]
binder = "75110_08K12A (antibody, V domains shown, Non-clonal AlivaMab Mouse Kappa hybridoma supernatant, captured by anti-mouse IgG Fc (human V regions, mouse Fc)) VH: EVQLVESGGGLVQPGGSLRLSCAASGFTFSSYDMHWVRQATGKGLEWVSTIGTAGDTYYPGSVKGRFTISRENAENSLYLQMNSLRAGDTALYYCARGDYYYYGMDVWGQGTTVTVSS VL: EIVLTQSPGTLSLSPGERATLSCRASQSVSSTYLAWYQQKPGQAPRLLIYGASNRATGIPDRFSGSGSGTDFTLTISRLEPEDFAVYYCQQFGTSPFTFGPGTKVDIK"
numeric_result = -2.51

[[record]]
binder = "75110_08G08A (antibody, V domains shown, Non-clonal AlivaMab Mouse Kappa hybridoma supernatant, captured by anti-mouse IgG Fc (human V regions, mouse Fc)) VH: QVQLQESGPGLVKPSETLSLTCSVSGGSISTYYWSWIRQPAGKGLEWIGRICTTENTNYNPSLKSRVTMSIDSSKNQFSLKLSSVTAADTAVYYCARDLERLNYYGMDVWGQGATVTVSS VL: DIQMTQSPSSLSASVGDRVTITCQASQDISNYLNWYQQKPGIAPKLLIYDASNLETGVPSRFSGSGSGTDFTFTISSLQPEDIATYYCQQYDSLPITFGQGTRLEIK"
numeric_result = -3.02

[[record]]
binder = "75110_08F20A (antibody, V domains shown, Non-clonal AlivaMab Mouse Kappa hybridoma supernatant, captured by anti-mouse IgG Fc (human V regions, mouse Fc)) VH: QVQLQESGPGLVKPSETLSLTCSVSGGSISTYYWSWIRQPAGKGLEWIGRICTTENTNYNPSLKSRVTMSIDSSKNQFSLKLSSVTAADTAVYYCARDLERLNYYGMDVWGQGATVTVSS VL: DIQMTQSPSSLSASVGDRVTITCQASQDISKYLNWYQQKPGIAPKLLIYDASNLETGVPSRFSGSGSGTDFTFTISSLQPEDFATYYCQQYDSLPITFGQGTRLEIK"
numeric_result = -3.59

[[record]]
binder = "75110_08A13A (antibody, V domains shown, Non-clonal AlivaMab Mouse Kappa hybridoma supernatant, captured by anti-mouse IgG Fc (human V regions, mouse Fc)) VH: EVQLVESGGGLVQPGGSLRLSCAASGFIFSSYWMSWVRQAPGKGLEWVANIKQDGSEKYYMDSVKGRFTISRDNAKNSLYLQMNSLRAEDTAVYYCARDNSYYYYGMDVWGQGTTVTVSS VL: AIQMTQSPSSLSASVGDRVTITCRASQGIRDDLGWYQQKPGKAPKLLIFAASSLQSGVPSSFSGSGSGTDFTLTISSLQPEDFATYYCLHHYNYPYTFGQGTKLEIK"
numeric_result = -3.00

